biological target: human progesterone receptor A (Homo sapiens, UniProt P06401); test: Progesterone-receptor-antagonistic action in stably transfected SK-N-MC cells, MTV-LUC reporter (PR-A); conditions: antagonistic potency vs 0.1 nmol/l promegestone, 24 hours, luciferase
Sequence (P06401 165-933): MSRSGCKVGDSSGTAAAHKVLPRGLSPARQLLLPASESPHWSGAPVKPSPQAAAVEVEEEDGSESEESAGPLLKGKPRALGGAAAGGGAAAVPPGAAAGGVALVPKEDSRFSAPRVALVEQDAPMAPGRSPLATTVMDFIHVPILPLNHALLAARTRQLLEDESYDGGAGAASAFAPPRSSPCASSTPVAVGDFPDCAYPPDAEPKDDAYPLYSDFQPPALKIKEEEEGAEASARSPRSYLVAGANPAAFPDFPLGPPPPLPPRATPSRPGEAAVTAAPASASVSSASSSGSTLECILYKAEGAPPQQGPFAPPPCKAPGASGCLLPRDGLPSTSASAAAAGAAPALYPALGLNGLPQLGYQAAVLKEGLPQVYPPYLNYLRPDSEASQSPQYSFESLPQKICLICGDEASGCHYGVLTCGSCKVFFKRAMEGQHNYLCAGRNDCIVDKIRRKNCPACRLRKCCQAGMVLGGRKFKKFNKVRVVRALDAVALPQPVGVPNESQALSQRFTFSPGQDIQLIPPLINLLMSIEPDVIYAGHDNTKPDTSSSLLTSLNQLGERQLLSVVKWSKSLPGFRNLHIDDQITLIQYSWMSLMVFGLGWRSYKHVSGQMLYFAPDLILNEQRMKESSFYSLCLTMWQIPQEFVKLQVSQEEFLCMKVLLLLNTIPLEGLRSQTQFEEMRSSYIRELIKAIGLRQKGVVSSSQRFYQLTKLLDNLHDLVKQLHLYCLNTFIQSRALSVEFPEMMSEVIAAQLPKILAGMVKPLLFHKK
I'd appreciate it if you could supply log10 of IC50 values for the items below.
Lab note - IC50 converted to log10 from values in nM.

INSERT INTO assay_data (compound, tested_on, experimental_value) VALUES
  ('C[C@]12C[C@H](c3ccc(C(=O)N4CCN(Cc5ccncc5)CC4)cc3)C3=C4CCC(=O)C=C4CC[C@H]3[C@@H]1CC[C@@]2(O)C(F)(F)C(F)(F)F [Example 49]', 'human progesterone receptor A (Homo sapiens, UniProt P06401)', 0.88),
  ('CC(C)(NC(=O)c1ccc([C@H]2C[C@@]3(C)[C@@H](CC[C@@]3(O)C(F)(F)C(F)(F)F)[C@@H]3CCC4=CC(=O)CCC4=C32)cc1)c1ccccc1 [Example 17]', 'human progesterone receptor A (Homo sapiens, UniProt P06401)', -0.68),
  ('C[C@]12C[C@H](c3ccc(C(=O)NCc4ccccc4)cc3)C3=C4CCC(=O)C=C4CC[C@H]3[C@@H]1CC[C@@]2(O)C(F)(F)C(F)(F)F [Example 34]', 'human progesterone receptor A (Homo sapiens, UniProt P06401)', 1.16),
  ('C[C@]12C[C@H](c3ccc(C(=O)N4CCC(C(=O)O)CC4)cc3)C3=C4CCC(=O)C=C4CC[C@H]3[C@@H]1CC[C@@]2(O)C(F)(F)C(F)(F)F [Example 75]', 'human progesterone receptor A (Homo sapiens, UniProt P06401)', 1.36),
  ('C[C@]12C[C@H](c3ccc(C(=O)NCCc4ccccn4)cc3)C3=C4CCC(=O)C=C4CC[C@H]3[C@@H]1CC[C@@]2(O)C(F)(F)C(F)(F)F [Example 61]', 'human progesterone receptor A (Homo sapiens, UniProt P06401)', 0.20),
  ('CCN(CC)C(=O)c1ccc([C@H]2C[C@@]3(C)[C@@H](CC[C@@]3(O)C(F)(F)C(F)(F)F)[C@@H]3CCC4=CC(=O)CCC4=C32)cc1 [Example 27]', 'human progesterone receptor A (Homo sapiens, UniProt P06401)', 2.12),
  ('C[C@]12C[C@H](c3ccc(C(=O)NC4CC4)cc3)C3=C4CCC(=O)C=C4CC[C@H]3[C@@H]1CC[C@@]2(O)C(F)(F)C(F)(F)F [Example 42]', 'human progesterone receptor A (Homo sapiens, UniProt P06401)', 0.86),
  ('C[C@]12C[C@H](c3ccc(C(=O)Nc4ccccc4)cc3)C3=C4CCC(=O)C=C4CC[C@H]3[C@@H]1CC[C@@]2(O)C(F)(F)C(F)(F)F [Example 22]', 'human progesterone receptor A (Homo sapiens, UniProt P06401)', 1.59);

Batch of 3 compounds: report log10 of IC50 for each.
1. C[C@]12C[C@H](c3ccc(C(=O)Nc4cccnc4)cc3)C3=C4CCC(=O)C=C4CC[C@H]3[C@@H]1CC[C@@]2(O)C(F)(F)C(F)(F)F [Example 12]
2. COC(=O)N1CCN(C(=O)c2ccc([C@H]3C[C@@]4(C)[C@@H](CC[C@@]4(O)C(F)(F)C(F)(F)F)[C@@H]4CCC5=CC(=O)CCC5=C43)cc2)CC1 [Example 70]
3. CN(C)CCCNC(=O)c1ccc([C@H]2C[C@@]3(C)[C@@H](CC[C@@]3(O)C(F)(F)C(F)(F)F)[C@@H]3CCC4=CC(=O)CCC4=C32)cc1 [Example 8]

1. 0.12
2. 0.23
3. 1.67
